Biological target: T1, human IL-2Rγc (CD132 protein, Fc Tag) (23-254) (human, UniProt P31785 23-254)
T1 construct: range 23-254; Bought protein; also called hu-IL-2Rγc subunit; IL-2Rγc subunit; not shown: Fc tag of the bought protein
T1 sequence (looked up): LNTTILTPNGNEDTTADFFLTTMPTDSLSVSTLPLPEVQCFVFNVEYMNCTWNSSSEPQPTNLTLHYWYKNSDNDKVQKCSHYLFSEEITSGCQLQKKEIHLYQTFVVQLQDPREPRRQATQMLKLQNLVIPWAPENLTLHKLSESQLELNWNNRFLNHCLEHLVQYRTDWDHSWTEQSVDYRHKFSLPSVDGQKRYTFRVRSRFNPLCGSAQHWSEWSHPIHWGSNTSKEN
Assay: IL-2Rγc IC50, assay not named in Example 29
Primed or numbered codes have the meaning given here. Ends that are not written are not given here. PEG10 = NCCOCCOCCOCCOCCOCCOCCOCCOCCOCCOCCC(=O)O; PEG20′ = not defined here
Value Kind: IC50

Okay, here is my list. What is IC50 for each of these?
1. {PEG 40 kDa branched-PEG20′}-GGWYPCWMAQLGELCDLDGGGGSGGVVCQDWEGVELCWQGG (cysteine pairing not given here; reading uncertain) [PEG-IL-2Rβγc ligand construct PEG-7]
2. {PEG 40 kDa linear-PEG20′}-GGWYPCWMAQLGELCDLDGGGGSGGVVCQDWEGVELCWQGG (cysteine pairing not given here; reading uncertain) [PEG-IL-2Rβγc ligand construct PEG-6]
3. {PEG 40 kDa branched-PEG10}-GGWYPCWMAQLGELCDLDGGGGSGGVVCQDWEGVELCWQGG (not fully specified; printed as -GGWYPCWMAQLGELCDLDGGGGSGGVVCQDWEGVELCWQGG-; cysteine pairing not given here) [PEG-IL-2Rβγc ligand construct PEG-1]

1: 1.7 nM; 2: 3.4 nM; 3: 26 nM
